The reported measurements were obtained from patent US8431596B2.

- study-target: AXL (human catalytic domain) (Homo sapiens)
- Construct: purchased Upstate Ltd. 14-512
- method-summary: AXL (human catalytic domain) Enzyme Activity Assay (IMAP fluorescence polarisation)
- Format: biochemical
- protocol-conditions: further data set (WW-001 through WW-169, XX-001 through XX-469, YY-001 through YY-016, ZZ-001 through ZZ-003); 150 μM ATP
Each entry below lists one item and its recorded IC50 value.
measured-attribute: IC50

- Fc1cccc(CNc2cccc(-c3cccc4nc(Nc5ccc(OCCN6CCCC6)cc5)nn34)c2)c1: 100 to 1000 nM
- COc1ccc(-c2cccc3nc(Nc4cccc(OCCN5CCOCC5)c4)nn23)cc1: 100 to 1000 nM
- Clc1ccccc1Cn1cc(-c2cccc3nc(Nc4ccc(OCCN5CCCC5)cc4)nn23)cn1: 100 to 1000 nM
- CC(C(=O)Nc1cccc(Nc2nc3cccc(-c4ccc5c(c4)OCCO5)n3n2)c1)N1CCCC1 (centres unmarked): ≤ 100 nM
- COc1ccc(-c2cccc3nc(Nc4ccc(C(=O)NCCN5CCCC5)s4)nn23)cc1: 100 to 1000 nM
- c1cc(NCc2ccco2)cc(-c2cccc3nc(Nc4ccc(OCCN5CCCC5)cc4)nn23)c1: 100 to 1000 nM
- COc1cccc(Nc2cccc3nc(NC(=O)C4CC4)nn23)c1: 1000 to 10000 nM
- O=C(Nc1ccc(-c2cccc3nc(Nc4ccc(OCCN5CCCC5)cc4)nn23)cc1)c1ccncc1: 100 to 1000 nM

* * *

- study-target: AXL (human catalytic domain) (Homo sapiens)
- Construct: purchased Upstate Ltd. 14-512
- method-summary: AXL (human catalytic domain) Enzyme Activity Assay (IMAP fluorescence polarisation)
- Format: biochemical
- protocol-conditions: further data set (WW-001 through WW-169, XX-001 through XX-469, YY-001 through YY-016, ZZ-001 through ZZ-003); 150 μM ATP
pIC50: −log10 of the molar value.
Each entry below lists one item and its recorded pIC50 value.
measured-attribute: pIC50

* CCN(CC)CC(=O)Nc1ccc(Nc2nc3cccc(-c4ccc5c(c4)OCCO5)n3n2)cc1 | 6.00 to 7.00
* COc1ccc(-c2cccc3nc(Nc4ccc(OCC(O)CN5CCOCC5)cc4)nn23)cc1 (stereo not drawn) | 6.00 to 7.00
* c1ccc(-c2nnc(-c3cccc(-c4cccc5nc(Nc6ccc(OCCN7CCCC7)cc6)nn45)c3)o2)cc1 | 5.00 to 6.00
* O=C(Nc1nc2cccc(-c3cccc([N+](=O)[O-])c3)n2n1)C1CC1 | 5.00 to 6.00
* COc1cc(Nc2cccc3nc(NC(=O)C4CC4)nn23)cc(OC)c1OC | 5.00 to 6.00
* Cc1noc(C)c1-c1cccc(-c2cccc3nc(Nc4ccc(OCCN5CCCC5)cc4)nn23)c1 | 6.00 to 7.00
* O=C(Cn1cc(-c2cccc3nc(Nc4ccc(OCCN5CCCC5)cc4)nn23)cn1)c1ccccc1 | 6.00 to 7.00
* O=C(Nc1nc2cccc(-c3cccc(Cl)c3)n2n1)C1CC1 | 5.00 to 6.00
* O=C(Cn1cc(-c2cccc3nc(Nc4ccc(OCCN5CCCC5)cc4)nn23)cn1)Nc1ccccc1 | 6.00 to 7.00
* O=C(Nc1nc2cccc(-c3cccc(F)c3)n2n1)C1CC1 | 5.00 to 6.00
* CS(=O)(=O)Nc1cccc(-c2cccc3nc(NC(=O)C4CC4)nn23)c1 | 5.00 to 6.00
* CC(C)CCn1cc(-c2cccc3nc(Nc4ccc(OCCN5CCCC5)cc4)nn23)cn1 | ≥ 7.00
* CCN(CC)CCOc1ccc(Nc2nc3cccc(-c4ccc5c(c4)OCCO5)n3n2)cc1 | ≥ 7.00
* CC(C)CNc1cccc2nc(NC(=O)C3CC3)nn12 | 5.00 to 6.00
* COc1ccc(-c2cccc3nc(Nc4ccc(OCCN5CCCCC5)cc4)nn23)cc1 | ≥ 7.00
* c1ccc(CCNc2ccc(-c3cccc4nc(Nc5ccc(OCCN6CCCC6)cc5)nn34)cc2)cc1 | 5.00 to 6.00
* COc1ccc(-c2cccc3nc(Nc4ccc(OC[C@@H](c5ccccc5)N5CCCC5)cc4)nn23)cc1 | 6.00 to 7.00
* O=C(Nc1nc2cccc(-c3ccc(NS(=O)(=O)c4ccccc4)cc3)n2n1)C1CC1 | 5.00 to 6.00

* * *

- study-target: AXL (human catalytic domain) (Homo sapiens)
- Construct: purchased Upstate Ltd. 14-512
- method-summary: AXL (human catalytic domain) Enzyme Activity Assay (IMAP fluorescence polarisation)
- Format: biochemical
- protocol-conditions: further data set (WW-001 through WW-169, XX-001 through XX-469, YY-001 through YY-016, ZZ-001 through ZZ-003); 150 μM ATP
- Method: Biological Methods AXL (human catalytic domain) Enzyme Activity Assay Reagents Kinase Assay Reaction Buffer: This consisted of 20 mM HEPES pH 7.0, 10 mM MgCl2, 1 mM DTT, […], 0.01% Triton X100 (v/v), and 0.01% BSA (w/v). All buffer components were purchased from Sigma-Aldrich at reagent grade or higher. […] ATP: Supplied by Sigma (product code A-7699). […] Final ATP concentration in the assay was 150 μM; this concentration represents the KM.ATP for this enzyme calculated in this assay. […]
pIC50: −log10 of the molar value.
Each entry below lists one item and its recorded pIC50 value.
measured-attribute: pIC50

- O=C(Nc1nc2cccc(NCc3cccc(Cl)c3)n2n1)C1CC1: 5.00 to 6.00
- CNCCOc1ccc(Nc2nc3cccc(-c4ccc5c(c4)OCO5)n3n2)cc1: 6.00 to 7.00
- Cc1c(-c2cccc3nc(Nc4ccc(OCCN5CCCC5)cc4)nn23)cnn1-c1ccccc1: 6.00 to 7.00
- NC(=O)COc1ccc(Nc2nc3cccc(-c4ccc5c(c4)OCCO5)n3n2)cc1: 6.00 to 7.00
- CC(CNc1ccc(Nc2nc3cccc(-c4ccc5c(c4)OCCO5)n3n2)cc1)N1CCCC1 (stereo not drawn): ≥ 7.00
- COc1ccc(-c2cccc3nc(NC(=O)C4CC4)nn23)cc1OC: 5.00 to 6.00
- CN(C)CCNC(=O)c1cccc(Nc2nc3cccc(-c4ccc5c(c4)OCO5)n3n2)c1: 6.00 to 7.00
- c1cc(-c2ccc3c(c2)OCCO3)n2nc(Nc3ccc(NCCN4CCCC4)cc3)nc2c1: 6.00 to 7.00
- Cc1ccc(-c2cccc3nc(NC(=O)C4CC4)nn23)cc1: 6.00 to 7.00

* * *

- study-target: AXL (human catalytic domain) (Homo sapiens)
- Construct: purchased Upstate Ltd. 14-512
- method-summary: AXL (human catalytic domain) Enzyme Activity Assay (IMAP fluorescence polarisation)
- Assay type: biochemical
- protocol-conditions: further data set (WW-001 through WW-169, XX-001 through XX-469, YY-001 through YY-016, ZZ-001 through ZZ-003); 150 μM ATP
- Procedure: Biological Methods AXL (human catalytic domain) Enzyme Activity Assay Reagents Kinase Assay Reaction Buffer: This consisted of 20 mM HEPES pH 7.0, 10 mM MgCl2, 1 mM DTT, […], 0.01% Triton X100 (v/v), and 0.01% BSA (w/v). All buffer components were purchased from Sigma-Aldrich at reagent grade or higher. […] ATP: Supplied by Sigma (product code A-7699). […] Final ATP concentration in the assay was 150 μM; this concentration represents the KM.ATP for this enzyme calculated in this assay. […]
Each entry below lists one item and its recorded IC50 value.
measured-attribute: IC50

* COc1ccc(-c2cccc3nc(Nc4ccc(OCCn5ccnc5)cc4)nn23)cc1 | 0.1 to 1 µM
* CCCCS(=O)(=O)NCc1cccc(-c2cccc3nc(Nc4ccc(OCCN5CCCC5)cc4)nn23)c1 | 1 to 10 µM
* CC(=O)Nc1ccc(S(=O)(=O)Nc2ccc(-c3cccc4nc(Nc5ccc(OCCN6CCCC6)cc5)nn34)cc2)cc1 | 1 to 10 µM
* c1cc(-c2ccsc2)cc(-c2cccc3nc(Nc4ccc(OCCN5CCCC5)cc4)nn23)c1 | 0.1 to 1 µM

* * *

- study-target: AXL (human catalytic domain) (Homo sapiens, UniProt P30530)
- Construct: purchased Upstate Ltd. 14-512
- Sequence (P30530 473-894): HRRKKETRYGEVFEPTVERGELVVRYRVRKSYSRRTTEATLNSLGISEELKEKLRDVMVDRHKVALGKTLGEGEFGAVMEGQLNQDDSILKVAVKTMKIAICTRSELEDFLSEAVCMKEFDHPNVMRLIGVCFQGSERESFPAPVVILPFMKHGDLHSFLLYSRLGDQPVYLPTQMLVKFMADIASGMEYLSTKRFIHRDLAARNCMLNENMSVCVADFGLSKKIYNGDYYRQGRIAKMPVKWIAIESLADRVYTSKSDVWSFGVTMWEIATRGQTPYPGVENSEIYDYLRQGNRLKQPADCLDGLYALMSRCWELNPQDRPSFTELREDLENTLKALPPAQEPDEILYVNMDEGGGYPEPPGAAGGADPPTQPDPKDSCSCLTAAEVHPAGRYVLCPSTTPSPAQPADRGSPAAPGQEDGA
- method-summary: AXL (human catalytic domain) Enzyme Activity Assay (IMAP fluorescence polarisation)
- Assay type: biochemical
- protocol-conditions: further data set (WW-001 through WW-169, XX-001 through XX-469, YY-001 through YY-016, ZZ-001 through ZZ-003); 150 μM ATP
Each entry below lists one item and its recorded IC50 value.
measured-attribute: IC50

* Cc1cc(-c2cccc3nc(NC(=O)C4CC4)nn23)cnc1F | 1000 to 10000 nM
* c1cc(NCCN2CCCC2)cc(Nc2nc3cccc(-c4ccc5c(c4)OCCO5)n3n2)c1 | 100 to 1000 nM
* CCN(CC)CCN(C)c1cc(Nc2nc3cccc(-c4ccc(OC)cc4)n3n2)ccn1 | ≤ 100 nM
* CN(C)c1ccc(-c2cccc3nc(Nc4ccc(OCCN5CCCC5)cc4)nn23)cc1 | 100 to 1000 nM
* FC(F)(F)c1ccc(CNc2cccc(-c3cccc4nc(Nc5ccc(OCCN6CCCC6)cc5)nn34)c2)o1 | 100 to 1000 nM
* O=C(Nc1nc2cccc(NCc3ccccn3)n2n1)C1CC1 | 1000 to 10000 nM
* O=C(Nc1nc2cccc(-c3ccc(-c4ccccc4)cc3)n2n1)C1CC1 | 100 to 1000 nM
* c1cc(-c2ccc3c(c2)CCO3)n2nc(Nc3ccc(N4CCNCC4)cc3)nc2c1 | 100 to 1000 nM
* COc1ccccc1CNc1cccc(-c2cccc3nc(Nc4ccc(OCCN5CCCC5)cc4)nn23)c1 | 100 to 1000 nM
